Experiment: Pharmacokinetic study in rats after intragastric administration of Farfarae Flos extract (plasma, LC-MS/MS)
Type: in vivo
Settings: male; rat plasma, oral Farfarae Flos extract 3.9 g·kg^−1, mean ± SD
ENDPOINT_LABEL: log10 half-life (log10 of the value in h)

COMPOUND: C=C1[C@H](OC(=O)/C=C(\C)CC)C[C@@H](C(C)C)[C@@H]2[C@@H]([C@@H](C)OC(C)=O)C(=O)C[C@@H]12
ENDPOINT_LABEL: log10 half-life
REPORTED: -0.55

COMPOUND: O=C(O)/C=C/c1ccc(O)c(O)c1
ENDPOINT_LABEL: log10 half-life
REPORTED: 0.67

COMPOUND: O=C(C=Cc1ccc(O)c(O)c1)OC1CC(O)(C(=O)O)CC(O)C1OC(=O)C=Cc1ccc(O)c(O)c1 (centres unmarked)
ENDPOINT_LABEL: log10 half-life
REPORTED: 0.63

COMPOUND: C[C@@H]1O[C@@H](OC[C@H]2O[C@@H](Oc3c(-c4ccc(O)c(O)c4)oc4cc(O)cc(O)c4c3=O)[C@H](O)[C@@H](O)[C@@H]2O)[C@H](O)[C@H](O)[C@H]1O
ENDPOINT_LABEL: log10 half-life
REPORTED: -0.21

COMPOUND: O=C(/C=C/c1ccc(O)c(O)c1)O[C@@H]1C[C@](O)(C(=O)O)C[C@@H](O)[C@H]1O
ENDPOINT_LABEL: log10 half-life
REPORTED: 0.33

COMPOUND: O=C(/C=C/c1ccc(O)c(O)c1)O[C@H]1[C@H](O)C[C@](O)(C(=O)O)C[C@H]1O
ENDPOINT_LABEL: log10 half-life
REPORTED: 0.01

COMPOUND: O=C(/C=C/c1ccc(O)c(O)c1)O[C@@H]1C[C@@](O)(C(=O)O)C[C@@H](O)[C@@H]1O
ENDPOINT_LABEL: log10 half-life
REPORTED: 0.21

COMPOUND: O=c1c(O[C@@H]2O[C@H](CO)[C@@H](O)[C@H](O)[C@H]2O)c(-c2ccc(O)c(O)c2)oc2cc(O)cc(O)c12
ENDPOINT_LABEL: log10 half-life
REPORTED: -0.06
